B1: library; a variant is named by its letters at N, in order (parent)
chain: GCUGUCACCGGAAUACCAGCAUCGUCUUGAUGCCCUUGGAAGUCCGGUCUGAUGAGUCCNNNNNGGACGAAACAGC

- Variants of: B1
- EXPERIMENTAL_DETAILS: FACS-Seq fitted mean relative fluorescence mCherry/BFP without ligand (log10 relative fluorescence); higher = higher reporter protein expression
- CONDITION_LABEL: HEK293T, ligand present: no
Assign Criterion met to entries whose FACS-Seq fitted mean (log10) meets or exceeds 0.6; assign Criterion not met to the rest.

{"columns": ["MUTATION_KEY", "CLASSIFICATION"],
 "data": [
  ["ACAUA", "Criterion not met"],
  ["GCAAU", "Criterion met"],
  ["AAGUU", "Criterion not met"],
  ["AACGA", "Criterion not met"],
  ["UAAAG", "Criterion not met"],
  ["AGCAA", "Criterion not met"],
  ["CUUAC", "Criterion not met"],
  ["CCAGU", "Criterion met"],
  ["UCAUG", "Criterion not met"],
  ["UGUCU", "Criterion met"],
  ["ACAAC", "Criterion not met"],
  ["CACGA", "Criterion met"],
  ["AGGGC", "Criterion met"],
  ["UUACU", "Criterion met"],
  ["ACUUU", "Criterion met"],
  ["GAGUU", "Criterion not met"],
  ["UUGGA", "Criterion not met"]
]}
